Entries annotated with measured Max MFI
study-target: T1, cynomolgus CCR8 (cynomolgus, UniProt G7NYJ2 1-355)
T1 construct: whole, on cells
T1 sequence (G7NYJ2 entry or part of it): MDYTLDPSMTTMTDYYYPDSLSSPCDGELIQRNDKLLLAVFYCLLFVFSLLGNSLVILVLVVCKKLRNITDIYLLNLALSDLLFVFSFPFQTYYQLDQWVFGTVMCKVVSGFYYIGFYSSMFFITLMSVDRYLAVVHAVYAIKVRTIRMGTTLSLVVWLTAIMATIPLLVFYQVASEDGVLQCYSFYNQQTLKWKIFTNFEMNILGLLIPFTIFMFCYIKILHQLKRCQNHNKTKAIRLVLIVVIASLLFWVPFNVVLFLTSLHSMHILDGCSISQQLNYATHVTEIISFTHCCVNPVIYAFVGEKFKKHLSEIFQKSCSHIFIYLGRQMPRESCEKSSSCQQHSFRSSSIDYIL
assay-summary: FACS on HEK293-cynomolgus CCR8 cells
Just the number in MFI, nothing appended.

- binder: "Hu149-24 (antibody, human IgG1, V domains shown, human IgG1) VH: EVQLVESGGGLVQPGGSLKLSCAASGFTFNTYAMNWVRQAPGKGLEWVGRIRSKSNFYATAYAASVKGRFTISRDDSKNTAYLQMNSLKTEDTAVYYCTRGKEYGSSYAMDYWGQGTLVTVSS VL: DIVMTQSPLSLPVTPGEPASISCRSSKSLLHSNANTYLYWFLQKPGQSPQLLIYRMSNLASGVPDRFSGSGSGTDFTLKISRVEAEDVGVYYCMQHLKYPLTFGGGTKVELK"
  unit-label: "MFI"
  Max MFI: "3.9e+06"
- binder: "Hu149-21 (antibody, human IgG1, V domains shown, human IgG1) VH: EVQLVESGGGLVQPGGSLKLSCAASGFTFNTYAMNWVRQASGKGLEWVGRIRSKSNFYATAYAASVKGRFTISRDDSKNTAYLQMNSLKTEDTAVYYCTRGREYGRSYAMDYWGQGTLVTVSS VL: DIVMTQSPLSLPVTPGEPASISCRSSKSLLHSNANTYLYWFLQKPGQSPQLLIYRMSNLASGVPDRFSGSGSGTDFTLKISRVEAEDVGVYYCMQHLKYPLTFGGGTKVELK"
  unit-label: "MFI"
  Max MFI: "4.15e+06"

We now examine a further binder.
*Q* Tell me the measured Max MFI of Hu149-16 (antibody, human IgG1, V domains shown, human IgG1) VH: EVQLVESGGGLVQPGGSLKLSCAASGFTFNTYAMNWVRQASGKGLEWVGRIRSKSNFYATAYAASVKGRFTISRDDSKNTAYLQMNSLKTEDTAVYYCTRGRDYGSSYAMDYWGQGTLVTVSS VL: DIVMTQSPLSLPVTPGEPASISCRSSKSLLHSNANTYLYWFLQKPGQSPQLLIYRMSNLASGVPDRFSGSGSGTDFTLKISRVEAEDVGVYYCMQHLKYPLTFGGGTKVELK , please.
*A* 3.8e+06
